Target: T1, human GLP-1 receptor (human, UniProt P43220 24-463)
T1 construct: whole, on cells; reporter assay used whole cells
Test: displacement of [125I]-GLP-1-(7-36)NH2 from BHK membranes with human GLP-1R, SPA, no serum albumin
Starred links: 1 amine or outer side, 2 acyl side, 3 side chain; linkers in the order of their positions; H or OH if unused. Non-standard residues stand in square brackets, D forms with d. Groups on a side chain read outwards from the residue. No end group written: not given here. *: point of attachment. C18 diacid = O=C(O)CCCCCCCCCCCCCCCCC(=O)*; γGlu = O=C(O)[C@H](CCC(=O)[*:2])N[*:1]; Ac4c = NC1(C(=O)O)CCC1; AEEA = NCCOCCOCC(=O)O; Aib = CC(C)(N)C(=O)O
measuredEndpoint: pIC50
Schema: pIC50 number; meaning minus log10 of the concentration expressed in molar units.

| binder | pIC50 |
| --- | --- |
| H[Aib]QGTFTSDLSRYLDARRARDFVQWLIK([γGlu-γGlu-γGlu-C18 diacid])T-NH2 (also called Chem. 14; Chem 14) | 10.00 |
| HXQGTFTSDYSRYLESRRARDFVQWLIKT (Aib at position 2; epsilon-N of Lys28 acylated with the substituent given in the name (17-carboxyheptadecanoyl-2xgGlu-Ado-gGlu-Ado-gGlu-Ado-gGlu-); C-terminal amide, also called Chem. 37; Chem 37) | 8.82 |
| H[Ac4c]QGTFTSDLSKYLESRRAREFVQWLIK([γGlu-γGlu-AEEA-AEEA-γGlu-γGlu-C18 diacid])T-NH2 (also called Chem. 13; Chem 13) | 10.00 |

Data request: Note down pIC50 recorded for H[Ac4c]QGTFTSDLSKYLESRRAREFVQWLIK([AEEA-AEEA-γGlu-γGlu-C18 diacid])T-NH2 (also called Chem. 18; Chem 18)
Data returned: 10.00

Data request: Note down pIC50 recorded for HXQGTFTSDYSRYLESRRARDFVQWLIKT (Acb at position 2; epsilon-N of Lys28 acylated with the substituent given in the name (17-carboxyheptadecanoyl-2xgGlu-Ado-gGlu-Ado-gGlu-Ado-gGlu-); C-terminal amide, also called Chem. 36; Chem 36)
Data returned: 8.82

Value source: patent US20170101454A1
